Reference source for all entries: patent US20170355774A1

- ASSAY_TARGET: T1, human GITR (amino acids M1-V241, NCBI Accession #NP_004186.1) expressed on cells (human, UniProt Q9Y5U5 26-241)
- T1 sequence: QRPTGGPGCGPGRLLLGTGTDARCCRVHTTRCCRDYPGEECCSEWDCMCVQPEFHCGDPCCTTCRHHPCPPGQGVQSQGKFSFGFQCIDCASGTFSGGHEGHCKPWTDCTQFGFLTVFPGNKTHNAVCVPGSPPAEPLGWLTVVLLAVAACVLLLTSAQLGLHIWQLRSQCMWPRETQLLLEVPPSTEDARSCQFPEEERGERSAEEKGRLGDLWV
- EXPERIMENTAL_DETAILS: cell-based or functional assay
Reported fold activation, T-cell proliferation, 33 nM, FcgR anchored, mean values for the following binders.
Reply with just the number (in fold).

# example entries with known answers
[
  {
    "BINDER": "H4H14470P (antibody, human IgG4, V domains shown, human IgG4 (H4H)) VH: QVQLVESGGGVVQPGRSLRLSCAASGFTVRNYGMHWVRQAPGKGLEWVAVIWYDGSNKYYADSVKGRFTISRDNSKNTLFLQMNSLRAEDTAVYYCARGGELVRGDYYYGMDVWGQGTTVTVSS VL: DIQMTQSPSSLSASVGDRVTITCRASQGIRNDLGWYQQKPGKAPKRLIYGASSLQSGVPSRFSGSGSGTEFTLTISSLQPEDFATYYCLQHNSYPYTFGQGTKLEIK",
    "REPORTED_VALUE": 1.5
  },
  {
    "BINDER": "H4H14476P (antibody, human IgG4, V domains shown, human IgG4 (H4H)) VH: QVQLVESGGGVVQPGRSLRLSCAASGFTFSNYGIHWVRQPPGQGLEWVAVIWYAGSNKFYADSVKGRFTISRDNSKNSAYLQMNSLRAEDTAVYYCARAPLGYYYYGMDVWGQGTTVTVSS VL: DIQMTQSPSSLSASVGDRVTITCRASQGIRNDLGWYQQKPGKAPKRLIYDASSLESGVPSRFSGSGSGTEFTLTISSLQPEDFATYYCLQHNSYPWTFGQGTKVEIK",
    "REPORTED_VALUE": 0.5
  },
  {
    "BINDER": "H4H14508P (antibody, human IgG4, V domains shown, human IgG4 (H4H)) VH: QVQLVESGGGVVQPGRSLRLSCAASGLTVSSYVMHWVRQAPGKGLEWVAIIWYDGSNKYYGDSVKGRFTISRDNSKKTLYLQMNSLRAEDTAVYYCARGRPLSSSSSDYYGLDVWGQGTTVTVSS VL: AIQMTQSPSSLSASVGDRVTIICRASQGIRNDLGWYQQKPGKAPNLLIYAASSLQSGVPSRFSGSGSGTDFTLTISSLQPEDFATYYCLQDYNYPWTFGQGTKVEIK",
    "REPORTED_VALUE": 1.2
  }
]

Record summary for H4H14528P (antibody, human IgG4, V domains shown, human IgG4 (H4H)) VH: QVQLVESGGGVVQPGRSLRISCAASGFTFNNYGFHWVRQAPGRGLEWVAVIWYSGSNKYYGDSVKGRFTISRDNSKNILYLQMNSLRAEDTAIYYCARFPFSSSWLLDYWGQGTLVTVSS VL: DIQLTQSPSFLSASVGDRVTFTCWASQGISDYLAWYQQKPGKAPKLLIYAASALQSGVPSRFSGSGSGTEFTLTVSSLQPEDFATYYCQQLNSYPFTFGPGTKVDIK : reported fold activation, T-cell proliferation, 33 nM, FcgR anchored, mean = 1.4
